src = PubChem BioAssay AID2060488

test system: 966289-007-R4-J1-PDC complex spheroid viability; test: Anticancer human tumor 966289-007-R4-J1-PDC patient-derived pancreatic adenocarcinoma cell line growth inhibition [GQUAD]; conditions: second compound 1 µM; first compound 0.00999 µM; active = viability on the fitted dose curve at most 10% of control; inactive = the rest;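 also: spheroids exposed to the agents for seven days before readout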
Respond with a class label; see active, inactive

Below, 3 molecules whose answers are already recorded.
{"MOLECULE": "CCc1c2c(nc3ccc(O)cc13)-c1cc3c(c(=O)n1C2)COC(=O)[C@]3(O)CC + Cc1cnc(CNC(=O)c2c(=O)c3ccc(N4CCCN(C)CC4)nc3n3c2sc2ccccc23)cn1", "TEST TARGET": "966289-007-R4-J1-PDC complex spheroid viability", "ASSIGNED CATEGORY": "active"}
{"MOLECULE": "CCc1c2c(nc3ccc(O)cc13)-c1cc3c(c(=O)n1C2)COC(=O)[C@]3(O)CC + CN(C)c1ccc(Nc2c3ccc(NC(=O)CCN4CCCC4)cc3nc3cc(NC(=O)CCN4CCCC4)ccc23)cc1", "TEST TARGET": "966289-007-R4-J1-PDC complex spheroid viability", "ASSIGNED CATEGORY": "active"}
{"MOLECULE": "CC[C@@]1(O)C(=O)OCc2c1cc1n(c2=O)Cc2cc3c(CN(C)C)c(O)ccc3nc2-1 + CN(C)c1ccc(Nc2c3ccc(NC(=O)CCN4CCCC4)cc3nc3cc(NC(=O)CCN4CCCC4)ccc23)cc1", "TEST TARGET": "966289-007-R4-J1-PDC complex spheroid viability", "ASSIGNED CATEGORY": "inactive"}

Exercise: What outcome does the record of this test show for CCc1c2c(nc3ccc(O)cc13)-c1cc3c(c(=O)n1C2)COC(=O)[C@]3(O)CC + Cc1[nH]c2ccc(F)cc2c1-c1nc2c3cccnc3c3ncccc3c2[nH]1 ?
Solution: active

Exercise: What outcome does the record of this test show for Cc1[nH]c2ccccc2c1CCNCc1ccc(/C=C/C(=O)NO)cc1 + Cc1cnc(CNC(=O)c2c(=O)c3ccc(N4CCCN(C)CC4)nc3n3c2sc2ccccc23)cn1 ?
Solution: active

Exercise: What outcome does the record of this test show for CC[C@@]1(O)C(=O)OCc2c1cc1n(c2=O)Cc2cc3c(CN(C)C)c(O)ccc3nc2-1 + Cc1[nH]c2ccc(F)cc2c1-c1nc2c3cccnc3c3ncccc3c2[nH]1 ?
Solution: inactive

Exercise: What outcome does the record of this test show for Cc1[nH]c2ccccc2c1CCNCc1ccc(/C=C/C(=O)NO)cc1 + CN(C)c1ccc(Nc2c3ccc(NC(=O)CCN4CCCC4)cc3nc3cc(NC(=O)CCN4CCCC4)ccc23)cc1 ?
Solution: inactive

Exercise: What outcome does the record of this test show for CC[C@@]1(O)C(=O)OCc2c1cc1n(c2=O)Cc2cc3c(CN(C)C)c(O)ccc3nc2-1 + Cc1cnc(CNC(=O)c2c(=O)c3ccc(N4CCCN(C)CC4)nc3n3c2sc2ccccc23)cn1 ?
Solution: active

Exercise: What outcome does the record of this test show for Cn1ncnc1[C@H]1c2n[nH]c(=O)c3cc(F)cc(c23)N[C@@H]1c1ccc(F)cc1 + Cc1cnc(CNC(=O)c2c(=O)c3ccc(N4CCCN(C)CC4)nc3n3c2sc2ccccc23)cn1 ?
Solution: active

Exercise: What outcome does the record of this test show for Cc1[nH]c2ccccc2c1CCNCc1ccc(/C=C/C(=O)NO)cc1 + Cc1[nH]c2ccc(F)cc2c1-c1nc2c3cccnc3c3ncccc3c2[nH]1 ?
Solution: inactive

Exercise: What outcome does the record of this test show for Cn1ncnc1[C@H]1c2n[nH]c(=O)c3cc(F)cc(c23)N[C@@H]1c1ccc(F)cc1 + Cc1[nH]c2ccc(F)cc2c1-c1nc2c3cccnc3c3ncccc3c2[nH]1 ?
Solution: inactive

Exercise: What outcome does the record of this test show for Cn1ncnc1[C@H]1c2n[nH]c(=O)c3cc(F)cc(c23)N[C@@H]1c1ccc(F)cc1 + CN(C)c1ccc(Nc2c3ccc(NC(=O)CCN4CCCC4)cc3nc3cc(NC(=O)CCN4CCCC4)ccc23)cc1 ?
Solution: inactive
